- assayed.system: hCereblon(M1-L442)_hDDB1(M1-H1140) (Homo sapiens (Human), UniProt Q96SW2)
- Sequence (Q96SW2 whole entry, looked up): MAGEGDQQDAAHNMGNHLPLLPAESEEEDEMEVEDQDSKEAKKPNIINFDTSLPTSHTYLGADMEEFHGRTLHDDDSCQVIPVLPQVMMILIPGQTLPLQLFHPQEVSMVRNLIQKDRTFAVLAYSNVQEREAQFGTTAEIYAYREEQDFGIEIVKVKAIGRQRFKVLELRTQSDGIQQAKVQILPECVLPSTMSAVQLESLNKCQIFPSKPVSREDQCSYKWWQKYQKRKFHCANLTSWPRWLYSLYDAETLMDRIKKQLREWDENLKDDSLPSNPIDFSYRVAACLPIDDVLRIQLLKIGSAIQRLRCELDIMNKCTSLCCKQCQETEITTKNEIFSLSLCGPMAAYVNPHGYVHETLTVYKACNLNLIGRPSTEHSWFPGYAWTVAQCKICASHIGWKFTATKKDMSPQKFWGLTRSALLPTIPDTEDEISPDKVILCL
- Sequence (Q16531 whole entry partner, looked up): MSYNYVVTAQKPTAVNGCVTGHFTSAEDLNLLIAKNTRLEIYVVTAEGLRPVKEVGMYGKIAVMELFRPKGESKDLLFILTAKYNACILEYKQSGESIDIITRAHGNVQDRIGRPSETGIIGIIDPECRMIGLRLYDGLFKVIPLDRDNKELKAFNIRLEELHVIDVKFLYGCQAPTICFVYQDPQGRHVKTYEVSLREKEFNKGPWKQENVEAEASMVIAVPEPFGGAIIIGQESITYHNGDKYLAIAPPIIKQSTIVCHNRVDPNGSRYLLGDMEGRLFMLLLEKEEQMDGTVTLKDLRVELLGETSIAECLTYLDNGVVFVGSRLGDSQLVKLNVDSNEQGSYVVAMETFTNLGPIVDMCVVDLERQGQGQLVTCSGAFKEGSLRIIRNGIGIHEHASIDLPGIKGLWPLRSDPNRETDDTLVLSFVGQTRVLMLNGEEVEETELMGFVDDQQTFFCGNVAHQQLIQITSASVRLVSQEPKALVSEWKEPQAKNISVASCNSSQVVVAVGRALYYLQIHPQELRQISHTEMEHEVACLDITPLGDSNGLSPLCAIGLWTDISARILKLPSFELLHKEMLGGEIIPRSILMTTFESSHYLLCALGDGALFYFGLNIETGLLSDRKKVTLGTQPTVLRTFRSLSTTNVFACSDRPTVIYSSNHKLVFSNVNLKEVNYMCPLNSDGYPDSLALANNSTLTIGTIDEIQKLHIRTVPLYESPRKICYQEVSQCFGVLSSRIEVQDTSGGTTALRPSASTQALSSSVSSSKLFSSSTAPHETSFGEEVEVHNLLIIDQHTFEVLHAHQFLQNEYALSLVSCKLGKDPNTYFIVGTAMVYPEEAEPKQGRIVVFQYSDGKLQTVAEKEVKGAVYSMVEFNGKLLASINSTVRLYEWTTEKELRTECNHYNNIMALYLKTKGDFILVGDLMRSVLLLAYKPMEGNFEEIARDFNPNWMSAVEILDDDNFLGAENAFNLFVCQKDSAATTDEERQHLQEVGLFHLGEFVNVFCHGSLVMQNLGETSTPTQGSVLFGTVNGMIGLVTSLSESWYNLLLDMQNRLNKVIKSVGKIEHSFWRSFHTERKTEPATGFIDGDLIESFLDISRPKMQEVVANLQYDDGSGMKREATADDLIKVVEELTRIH
parameter: pKd
Answers are plain numbers, as −log10 of the molar value.

Study these solved cases before continuing.
O=C1NC(=O)C2(CCN(c3ccc([N+](=O)[O-])cn3)CC2)N1
8.15
O=C1CCC2(CCN(C(=O)c3ccc4c(c3)NCC4)C2)C(=O)N1 (stereo not drawn)
7.12
O=C1CCC2(CCN(C(=O)c3cccc4c3CCN4)C2)C(=O)N1 (stereo not drawn)
8.22
O=C1NC(=O)C2(CCN(C(=O)[C@@H]3CCCc4ccccc43)CC2)N1
8.30
O=C1CC2(CCN(C(=O)[C@H]3CCCc4ccccc43)CC2)C(=O)N1 (single isomer, unassigned)
8.22

Give one value of pKd per listed compound.
1. O=C1CCC2(CCN(c3nc4cnccc4s3)C2)C(=O)N1 (stereo not drawn)
2. COC(=O)c1ccc(C(=O)N2CCC3(CCC(=O)NC3=O)C2)cc1 (stereo not drawn)
3. COC(=O)c1csc(N2CCC3(CCC(=O)NC3=O)C2)n1 (stereo not drawn)

output:
8.22
7.89
7.36
